Origin of measurements: patent US8927547B2

System: CCRF-CEM cancer cells - leukaemia
test_protocol: Fluorometric Microculture Cytotoxicity Assay (FMCA), CCRF-CEM
Type: cell-based
assay_context: Homo sapiens, 72 h incubation
measurement_label: EC50 (nM)

INSERT INTO assay_data (compound, target_entity, output_unit, qualifier_sign, reported_measurement) VALUES
  ('Cc1cc(Nc2ccc3[nH]c(C)cc3c2)nc(NCc2ccc3[nH]ccc3c2)n1 [Example 83]', 'CCRF-CEM cancer cells - leukaemia', 'nM', '<', 10000),
  ('Cc1cc2cc(Nc3ccnc(NCc4ccc5[nH]ccc5c4)n3)ccc2[nH]1 [Example 24]', 'CCRF-CEM cancer cells - leukaemia', 'nM', '=', 380),
  ('COc1ccc2[nH]cc(CCNc3nccc(NCc4ccc5cc[nH]c5c4)n3)c2c1 [Example 71]', 'CCRF-CEM cancer cells - leukaemia', 'nM', '<', 10000),
  ('Cc1cc2cc(CNc3ccnc(Nc4cccc5[nH]ccc45)n3)ccc2[nH]1 [Example 13]', 'CCRF-CEM cancer cells - leukaemia', 'nM', '=', 550);

###

Overview of reported EC50 across a group of molecules:
System: CCRF-CEM cancer cells - leukaemia
test_protocol: Fluorometric Microculture Cytotoxicity Assay (FMCA), CCRF-CEM
Assay type: cell-based
assay_context: Homo sapiens, 72 h incubation
measurement_label: EC50 (µM)

INSERT INTO assay_data (structure_string, output_unit, reported_measurement) VALUES
  ('COc1ccc2[nH]cc(CCNc3nccc(NCc4ccc5[nH]c(C)cc5c4)n3)c2c1', 'µM', 0.05),
  ('Cc1cc2cc(Nc3ccnc(NCc4ccc5[nH]ncc5c4)n3)ccc2[nH]1', 'µM', 0.92),
  ('COc1ccc2[nH]cc(CCNc3nccc(NCc4ccc5[nH]ncc5c4)n3)c2c1', 'µM', 0.21);

###

Test system: CCRF-CEM cancer cells - leukaemia
test_protocol: Fluorometric Microculture Cytotoxicity Assay (FMCA), CCRF-CEM
Format: cell-based
assay_context: Homo sapiens, 72 h incubation
Rule: EC50 below 0.3 µM gives Fulfilled. Equal to or above 0.3 µM gives Not fulfilled.

INSERT INTO assay_data (compound, target_entity, category_label) VALUES
  ('Cc1ccc2[nH]cc(CCNc3nccc(NCc4ccc5[nH]ccc5c4)n3)c2c1 [Example 11]', 'CCRF-CEM cancer cells - leukaemia', 'Not fulfilled'),
  ('c1cc(Nc2nccc(NCc3ccc4[nH]ccc4c3)n2)c2cc[nH]c2c1 [Example 1]', 'CCRF-CEM cancer cells - leukaemia', 'Not fulfilled'),
  ('c1cc(Nc2ccc3[nH]cnc3c2)nc(NCc2ccc3[nH]ccc3c2)n1 [Example 95]', 'CCRF-CEM cancer cells - leukaemia', 'Not fulfilled'),
  ('c1cc(Nc2nccc(NCc3ccc4[nH]ccc4c3)n2)c2cn[nH]c2c1 [Example 76]', 'CCRF-CEM cancer cells - leukaemia', 'Fulfilled'),
  ('Cc1cc2cc(Nc3ccnc(NCc4ccc5[nH]cnc5c4)n3)ccc2[nH]1 [Example 67]', 'CCRF-CEM cancer cells - leukaemia', 'Fulfilled'),
  ('COc1ccc2[nH]cc(CCNc3ccnc(NCc4ccc5[nH]ccc5c4)n3)c2c1 [Example 28]', 'CCRF-CEM cancer cells - leukaemia', 'Not fulfilled');

###

Tested on: H69AR
test_protocol: FMCA, H69AR doxorubicin-resistant lung cancer
Format: cell-based
assay_context: Homo sapiens, read-out: EC50 (μM) in various cancer cell lines: H69 AR
Each entry below carries its reported EC50.
measurement_label: EC50 (µM)

INSERT INTO results (molecule, output_unit, reported_measurement) VALUES
  ('c1cc(Nc2nccc(NCc3ccc4[nH]ccc4c3)n2)c2cn[nH]c2c1 [Example 76]', 'µM', 0.34),
  ('COc1ccc2[nH]cc(CCNc3nc(C)cc(NCc4ccc5[nH]ccc5c4)n3)c2c1 [Example 84]', 'µM', 0.35),
  ('Cc1cc2cc(Nc3ccnc(NCc4ccc5[nH]ccc5c4)n3)ccc2[nH]1 [Example 24]', 'µM', 0.46),
  ('COc1ccc2[nH]cc(CCNc3nccc(NCc4ccc5[nH]ccc5c4)n3)c2c1 [Example 12]', 'µM', 0.27),
  ('COc1ccc2[nH]cc(CCNc3nccc(NCc4ccc5[nH]c(C)cc5c4)n3)c2c1 [Example 64]', 'µM', 0.29),
  ('COc1ccc2[nH]cc(CCNc3nccc(NCc4ccc5[nH]ncc5c4)n3)c2c1 [Example 66]', 'µM', 0.64),
  ('Cc1cc2cc(Nc3ccnc(NCc4ccc5[nH]cnc5c4)n3)ccc2[nH]1 [Example 67]', 'µM', 0.71);
